Tested on: K98450-129-R-PDC complex spheroid growth, percent test/control
assay-comment: Anticancer human tumor K98450-129-R-PDC patient-derived colon adenocarcinoma cell line growth inhibition [RAS]
test-context: second compound 0.003 µM; first compound 0.0316 µM; hits give low values
metric: viability, T/C (%)

1) C[C@@H](NC(=O)c1ncnc(N)c1Cl)c1ncc(C(=O)Nc2cc(C(F)(F)F)c(Cl)cn2)s1 + CCn1c(-c2cccnc2C(C)OC)c2c3cc(ccc31)N1CCOC(CC(NC(=O)C(C(C)C)N(C)C(=O)C3(F)CCN(C(=O)C#CC(C)(C)N(C)C)CC3)C(=O)N3CCCC(N3)C(=O)OCC(C)(C)C2)C1 ... 57.9
2) CC(C)NCC(C(=O)N1CCN(c2ncnc3c2C(C)CC3O)CC1)c1ccc(Cl)cc1 (stereo not given) + CCn1c(-c2cccnc2C(C)OC)c2c3cc(ccc31)N1CCOC(CC(NC(=O)C(C(C)C)N(C)C(=O)C3(F)CCN(C(=O)C#CC(C)(C)N(C)C)CC3)C(=O)N3CCCC(N3)C(=O)OCC(C)(C)C2)C1 ... 68.8
3) C=CC(=O)N1CCN(c2nc(OCC3CCCN3C)nc3c(F)c(-c4nc(N)cc(C)c4C(F)(F)F)c(Cl)cc23)C(C)C1 (stereo not given) + CCn1c(-c2cccnc2C(C)OC)c2c3cc(ccc31)N1CCOC(CC(NC(=O)C(C(C)C)N(C)C(=O)C3(F)CCN(C(=O)C#CC(C)(C)N(C)C)CC3)C(=O)N3CCCC(N3)C(=O)OCC(C)(C)C2)C1 ... 52.8
4) CCN1CCN(Cc2ccc(Nc3ncc(F)c(-c4cc(F)c5nc(C)n(C(C)C)c5c4)n3)nc2)CC1 + CCn1c(-c2cc(N3CCN(C)CC3)cnc2C(C)OC)c2c3cc(ccc31)-c1csc(n1)CC(NC(=O)C1CC1C)C(=O)N1CCCC(N1)C(=O)OCC(C)(C)C2 ... 72.5
5) C=CC(=O)Nc1cc(Nc2nccc(-c3cn(C)c4ccccc34)n2)c(OC)cc1N(C)CCN(C)C + CCn1c(-c2cc(N3CCN(C)CC3)cnc2C(C)OC)c2c3cc(ccc31)-c1csc(n1)CC(NC(=O)C1CC1C)C(=O)N1CCCC(N1)C(=O)OCC(C)(C)C2 ... 72.8
6) CC(Nc1ccc2c(c1)OCCn1cc(N3C(=O)OCC3C(F)F)nc1-2)C(N)=O (stereo not given) + CCn1c(-c2cccnc2C(C)OC)c2c3cc(ccc31)N1CCOC(CC(NC(=O)C(C(C)C)N(C)C(=O)C3(F)CCN(C(=O)C#CC(C)(C)N(C)C)CC3)C(=O)N3CCCC(N3)C(=O)OCC(C)(C)C2)C1 ... 57.7
7) CCC(CC)c1cc(NC2CCC(N)C2)n2nccc2n1 (stereo not given) + CCn1c(-c2cccnc2C(C)OC)c2c3cc(ccc31)N1CCOC(CC(NC(=O)C(C(C)C)N(C)C(=O)C3(F)CCN(C(=O)C#CC(C)(C)N(C)C)CC3)C(=O)N3CCCC(N3)C(=O)OCC(C)(C)C2)C1 ... 65.2
8) NC1c2ccccc2OC12CCN(c1cnc3c(N4CCCc5ncccc54)n[nH]c3n1)CC2 (stereo not given) + CCn1c(-c2cc(N3CCN(C)CC3)cnc2C(C)OC)c2c3cc(ccc31)-c1csc(n1)CC(NC(=O)C1CC1C)C(=O)N1CCCC(N1)C(=O)OCC(C)(C)C2 ... 69.2
9) CC(C)n1nc(-c2ccc3oc(N)nc3c2)c2c(N)ncnc21 + CCn1c(-c2cc(N3CCN(C)CC3)cnc2C(C)OC)c2c3cc(ccc31)-c1csc(n1)CC(NC(=O)C1CC1C)C(=O)N1CCCC(N1)C(=O)OCC(C)(C)C2 ... 71.2
10) O=C(c1ccc(F)c(F)c1Nc1ccc(I)cc1F)N1CC(O)([C@@H]2CCCCN2)C1 + CCn1c(-c2cccnc2C(C)OC)c2c3cc(ccc31)N1CCOC(CC(NC(=O)C(C(C)C)N(C)C(=O)C3(F)CCN(C(=O)C#CC(C)(C)N(C)C)CC3)C(=O)N3CCCC(N3)C(=O)OCC(C)(C)C2)C1 ... 40.7
11) CCN1CCN(Cc2ccc(Nc3ncc(F)c(-c4cc(F)c5nc(C)n(C(C)C)c5c4)n3)nc2)CC1 + CCn1c(-c2cccnc2C(C)OC)c2c3cc(ccc31)N1CCOC(CC(NC(=O)C(C(C)C)N(C)C(=O)C3(F)CCN(C(=O)C#CC(C)(C)N(C)C)CC3)C(=O)N3CCCC(N3)C(=O)OCC(C)(C)C2)C1 ... 48.2
12) C=CC(=O)N1CCN(c2nc(OCC3CCCN3C)nc3c(F)c(-c4nc(N)cc(C)c4C(F)(F)F)c(Cl)cc23)C(C)C1 (stereo not given) + CCn1c(-c2cc(N3CCN(C)CC3)cnc2C(C)OC)c2c3cc(ccc31)-c1csc(n1)CC(NC(=O)C1CC1C)C(=O)N1CCCC(N1)C(=O)OCC(C)(C)C2 ... 55.6
13) Nc1ccn(C2OC(CO)C(O)C2(F)F)c(=O)n1 (stereo not given) + CCn1c(-c2cccnc2C(C)OC)c2c3cc(ccc31)N1CCOC(CC(NC(=O)C(C(C)C)N(C)C(=O)C3(F)CCN(C(=O)C#CC(C)(C)N(C)C)CC3)C(=O)N3CCCC(N3)C(=O)OCC(C)(C)C2)C1 ... 42.4
14) C[C@@H](NC(=O)c1ncnc(N)c1Cl)c1ncc(C(=O)Nc2cc(C(F)(F)F)c(Cl)cn2)s1 + CCn1c(-c2cc(N3CCN(C)CC3)cnc2C(C)OC)c2c3cc(ccc31)-c1csc(n1)CC(NC(=O)C1CC1C)C(=O)N1CCCC(N1)C(=O)OCC(C)(C)C2 ... 105
15) Nc1ccn(C2OC(CO)C(O)C2(F)F)c(=O)n1 (stereo not given) + CCn1c(-c2cc(N3CCN(C)CC3)cnc2C(C)OC)c2c3cc(ccc31)-c1csc(n1)CC(NC(=O)C1CC1C)C(=O)N1CCCC(N1)C(=O)OCC(C)(C)C2 ... 62.3

====

System: K98450-129-R-PDC complex spheroid growth, percent test/control
assay-comment: Anticancer human tumor K98450-129-R-PDC cell line growth inhibition [RAS]; active = viability on the fitted dose curve at most 10% of control; inactive = the rest;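 also: luminescence used as a proxy for viable cell amount; spheroids exposed to agents for seven days before the viability readout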
test-context: second compound 0.1 µM; first compound 0.1 µM
Classes used: active, inactive

1. O=C(c1ccc(F)c(F)c1Nc1ccc(I)cc1F)N1CC(O)([C@@H]2CCCCN2)C1 + C=CC(=O)N1CCN(c2nc(OCC3CCCN3C)nc3c(F)c(-c4nc(N)cc(C)c4C(F)(F)F)c(Cl)cc23)C(C)C1 ... inactive
2. CC(Nc1ccc2c(c1)OCCn1cc(N3C(=O)OCC3C(F)F)nc1-2)C(N)=O (centres undefined) + C=CC(=O)N1CCN(c2nc(OCC3CCCN3C)nc3c(F)c(-c4nc(N)cc(C)c4C(F)(F)F)c(Cl)cc23)C(C)C1 ... inactive
3. CCC(CC)c1cc(NC2CCC(N)C2)n2nccc2n1 (centres undefined) + C#Cc1c(F)ccc2cc(O)cc(-c3ncc4c(N5CC6CCC(C5)N6)nc(OCC56CCCN5CC(F)C6)nc4c3F)c12 ... inactive
4. CC(C)n1nc(-c2ccc3oc(N)nc3c2)c2c(N)ncnc21 + C=CC(=O)N1CCN(c2nc(OCC3CCCN3C)nc3c(F)c(-c4nc(N)cc(C)c4C(F)(F)F)c(Cl)cc23)C(C)C1 ... inactive
5. Nc1ccn(C2OC(CO)C(O)C2(F)F)c(=O)n1 (centres undefined) + C#Cc1c(F)ccc2cc(O)cc(-c3ncc4c(N5CC6CCC(C5)N6)nc(OCC56CCCN5CC(F)C6)nc4c3F)c12 ... inactive
6. NC1c2ccccc2OC12CCN(c1cnc3c(N4CCCc5ncccc54)n[nH]c3n1)CC2 (centres undefined) + C#Cc1c(F)ccc2cc(O)cc(-c3ncc4c(N5CC6CCC(C5)N6)nc(OCC56CCCN5CC(F)C6)nc4c3F)c12 ... inactive
7. CC(Nc1ccc2c(c1)OCCn1cc(N3C(=O)OCC3C(F)F)nc1-2)C(N)=O (centres undefined) + C#Cc1c(F)ccc2cc(O)cc(-c3ncc4c(N5CC6CCC(C5)N6)nc(OCC56CCCN5CC(F)C6)nc4c3F)c12 ... inactive
8. NC1c2ccccc2OC12CCN(c1cnc3c(N4CCCc5ncccc54)n[nH]c3n1)CC2 (centres undefined) + C=CC(=O)N1CCN(c2nc(OCC3CCCN3C)nc3c(F)c(-c4nc(N)cc(C)c4C(F)(F)F)c(Cl)cc23)C(C)C1 ... active
9. C=CC(=O)Nc1cc(Nc2nccc(-c3cn(C)c4ccccc34)n2)c(OC)cc1N(C)CCN(C)C + C=CC(=O)N1CCN(c2nc(OCC3CCCN3C)nc3c(F)c(-c4nc(N)cc(C)c4C(F)(F)F)c(Cl)cc23)C(C)C1 ... inactive
10. CC(C)NCC(C(=O)N1CCN(c2ncnc3c2C(C)CC3O)CC1)c1ccc(Cl)cc1 (centres undefined) + C=CC(=O)N1CCN(c2nc(OCC3CCCN3C)nc3c(F)c(-c4nc(N)cc(C)c4C(F)(F)F)c(Cl)cc23)C(C)C1 ... inactive
11. CC(=O)OC12COC1CC(O)C1(C)C(=O)C(O)C3=C(C)C(OC(=O)C(O)C(NC(=O)OC(C)(C)C)c4ccccc4)CC(O)(C(OC(=O)c4ccccc4)C21)C3(C)C (centres undefined) + C=CC(=O)N1CCN(c2nc(OCC3CCCN3C)nc3c(F)c(-c4nc(N)cc(C)c4C(F)(F)F)c(Cl)cc23)C(C)C1 ... inactive
12. C[C@@H](NC(=O)c1ncnc(N)c1Cl)c1ncc(C(=O)Nc2cc(C(F)(F)F)c(Cl)cn2)s1 + C=CC(=O)N1CCN(c2nc(OCC3CCCN3C)nc3c(F)c(-c4nc(N)cc(C)c4C(F)(F)F)c(Cl)cc23)C(C)C1 ... inactive
13. CC(C)n1nc(-c2ccc3oc(N)nc3c2)c2c(N)ncnc21 + C#Cc1c(F)ccc2cc(O)cc(-c3ncc4c(N5CC6CCC(C5)N6)nc(OCC56CCCN5CC(F)C6)nc4c3F)c12 ... inactive
14. Cc1nc(N2CCC3(CC2)COC(C)C3N)c(CO)nc1Sc1ccnc(N)c1Cl (centres undefined) + C#Cc1c(F)ccc2cc(O)cc(-c3ncc4c(N5CC6CCC(C5)N6)nc(OCC56CCCN5CC(F)C6)nc4c3F)c12 ... inactive
15. CC1(O)CCCC1n1c(=O)c(C(F)F)cc2cnc(NC3CCN(S(C)(=O)=O)CC3)nc21 (centres undefined) + C#Cc1c(F)ccc2cc(O)cc(-c3ncc4c(N5CC6CCC(C5)N6)nc(OCC56CCCN5CC(F)C6)nc4c3F)c12 ... inactive
16. CCN1CCN(Cc2ccc(Nc3ncc(F)c(-c4cc(F)c5nc(C)n(C(C)C)c5c4)n3)nc2)CC1 + C=CC(=O)N1CCN(c2nc(OCC3CCCN3C)nc3c(F)c(-c4nc(N)cc(C)c4C(F)(F)F)c(Cl)cc23)C(C)C1 ... inactive
17. C=CC(=O)N1CCN(c2nc(OCC3CCCN3C)nc3c(F)c(-c4nc(N)cc(C)c4C(F)(F)F)c(Cl)cc23)C(C)C1 (centres undefined) + C#Cc1c(F)ccc2cc(O)cc(-c3ncc4c(N5CC6CCC(C5)N6)nc(OCC56CCCN5CC(F)C6)nc4c3F)c12 ... inactive
18. Nc1ccn(C2OC(CO)C(O)C2(F)F)c(=O)n1 (centres undefined) + C=CC(=O)N1CCN(c2nc(OCC3CCCN3C)nc3c(F)c(-c4nc(N)cc(C)c4C(F)(F)F)c(Cl)cc23)C(C)C1 ... inactive
19. Cc1nc(N2CCC3(CC2)COC(C)C3N)c(CO)nc1Sc1ccnc(N)c1Cl (centres undefined) + C=CC(=O)N1CCN(c2nc(OCC3CCCN3C)nc3c(F)c(-c4nc(N)cc(C)c4C(F)(F)F)c(Cl)cc23)C(C)C1 ... inactive
